system: SK-OV-3 ovarian; test: NCI-60 one-dose screen, 48 h; conditions: 10 µM unless noted
Compounds without any hit were thinned out: in the full panel of roughly 83,000, 20% have a hit. The source made the active and inactive calls. The calls were made as follows: active = growth percent below 10; inactive = the rest.
Outcomes: 1 (yes) (active), 0 (no) (inactive)

[[record]]
molecule = "O=C1/C(=C/c2ccccc2)SC(=S)N1CCc1ccc(O)cc1"
label = "0 (no)"

[[record]]
molecule = "CCOC(=O)n1cc(-c2nonc2-c2cn(C)c3ncccc23)c2ccccc21"
label = "0 (no)"

[[record]]
molecule = "O=C1C=C(OCC=C(Cl)Cl)C(=O)c2ccccc21"
label = "0 (no)"

[[record]]
molecule = "c1ccc(-c2c(-c3ccccc3)[n+](Cc3ccc4ccccc4c3)c(-c3ccc(-c4nc5ccccc5s4)cc3)n2Cc2ccc3ccccc3c2)cc1"
label = "1 (yes)"

[[record]]
molecule = "O=C(/C=C/c1cc(CN2CCOCC2)c(O)c2ncccc12)c1cc(CN2CCOCC2)c(O)c2ncccc12"
label = "1 (yes)"

[[record]]
molecule = "Cn1cc(C(=O)c2nc(-c3c[nH]c4ccccc34)no2)c2ccccc21"
label = "0 (no)"

[[record]]
molecule = "Oc1cccc(-c2nc(N3CCOCC3)c3c4c(sc3n2)CCCC4)c1"
label = "0 (no)"

[[record]]
molecule = "COc1ccc(NC2=C(Sc3nc(C)cc(C)n3)C(=O)N(Cc3ccccc3)C2=O)cc1Cl"
label = "0 (no)"

[[record]]
molecule = "CCCc1cc(=O)n2c(C(=O)Nc3ccc(F)cc3)c(C(=O)Nc3ccc(F)cc3)sc2n1"
label = "0 (no)"

[[record]]
molecule = "COc1cc2c(cc1-c1c(C)noc1C)ncc1nc(-c3ccccn3)n([C@H](C)COC(F)F)c12"
label = "1 (yes)"

[[record]]
molecule = "O=C1/C(=C/N2N=C(c3ccc4ccccc4c3)CC2c2ccccc2O)SC(=S)N1c1cccnc1 (stereo unspecified)"
label = "0 (no)"

[[record]]
molecule = "O=c1ccccc(-c2ccc(Br)cc2)c1O"
label = "0 (no)"

[[record]]
molecule = "C=C1C(=O)O[C@H]2[C@H]1CC/C(COC(=O)NCc1ccc(OC)c(OC)c1)=C\\CC[C@@]1(C)O[C@@H]21"
label = "0 (no)"

[[record]]
molecule = "COc1ccc(CN2c3ccccc3Oc3ccccc32)cc1O"
label = "0 (no)"

[[record]]
molecule = "O=C(N=Nc1c(O)[nH]c2ccc(Br)cc12)c1cc(-c2ccccc2)on1"
label = "0 (no)"

[[record]]
molecule = "COc1cc2c(cc1O)CC[C@@H]1[C@@H]2CC[C@]2(C)[C@@H](NCCN(C)C)CC[C@@H]12"
label = "1 (yes)"

[[record]]
molecule = "COc1cc(C(=O)Oc2ccccc2OC(=O)c2cc(OC)c(OC)c(OC)c2)cc(OC)c1OC"
label = "0 (no)"

[[record]]
molecule = "O=C1c2cc3c(cc2-c2c1c1ccc(Cl)cc1c(=O)n2CCCN1CCOCC1)OCO3"
label = "0 (no)"

[[record]]
molecule = "Nc1nc2ncc(CCNc3ccc(C(=O)O)cc3)nc2c(=O)[nH]1"
label = "0 (no)"

[[record]]
molecule = "COc1ccc(S(=O)(=O)N2CC3(COC3)C2)cc1NC(=O)c1[nH]c(C)c2c1CCCCC2=O"
label = "0 (no)"

[[record]]
molecule = "COc1cc(-c2nn(C)nc2-c2cc3ccccc3s2)cc(OC)c1OC"
label = "0 (no)"

[[record]]
molecule = "O=[N+]([O-])c1cnc(N2CCN(CC3CC3)CC2)nc1N1CCN(CC2CC2)CC1"
label = "0 (no)"

[[record]]
molecule = "CCc1c(Nc2ccccc2C)nc(N)[nH]c1=O"
label = "0 (no)"

[[record]]
molecule = "COc1cccc(-c2nn(C(C)(C)C)cc2-c2ccnc(NCCCNS(=O)(=O)c3cccc4ccccc34)c2)c1"
label = "0 (no)"

[[record]]
molecule = "O=c1c2c3c(sc2nc(N/N=C/c2cn(-c4ccccc4)nc2-c2ccc(Cl)cc2)n1Cc1ccccc1)CCCC3"
label = "0 (no)"

[[record]]
molecule = "COc1ccc(/C=C/c2nc3ccccc3nc2/C=C/c2ccc(OC)cc2)cc1"
label = "0 (no)"

[[record]]
molecule = "O=C1c2ccccc2C(=O)c2c1ccc1[nH]c(-c3cccs3)nc21"
label = "0 (no)"

[[record]]
molecule = "COC(=O)c1ccc2oc(NC(=O)c3ccc(Nc4ccc([N+](=O)[O-])cc4C)c([N+](=O)[O-])c3)nc2c1"
label = "0 (no)"

[[record]]
molecule = "CC(=O)OC[C@H]1O[C@H](OC(C)=O)[C@H](NC(=O)/C=C/CCl)[C@@H](OC(C)=O)[C@@H]1OC(C)=O"
label = "0 (no)"

[[record]]
molecule = "CCCN1CCN(c2ccc3nc(-c4ccc5nc(-c6ccc(OCC)cc6)[nH]c5c4)[nH]c3c2)CC1"
label = "0 (no)"

[[record]]
molecule = "NC(=NCCCOc1ccc(Cl)cc1)Nc1ccc(C(F)(F)F)cc1"
label = "0 (no)"


###

test system: K-562 leukemia; assay: NCI-60 one-dose screen, 48 h; conditions: 10 µM unless noted
The panel holds about 83,000 compounds, 20% with a hit somewhere; the sample as a whole holds those more often. Activity calls are given as the source filed them. Rule for the calls: active = growth percent below 10; inactive = the rest.
Outcomes: T for active, F for inactive

[[record]]
compound = "Cc1oc(-c2ccc(Cl)cc2Cl)cc1C(=O)Nc1nccs1"
label = "F"

[[record]]
compound = "CN(Cc1cc(Cl)cc(Cl)c1O)Cc1cc(Cl)cc(Cl)c1O"
label = "F"

[[record]]
compound = "COc1ccc(-n2nc(C)c3c(Nc4ccc(NC(=O)Nc5c(Cl)cccc5Cl)cc4)ncnc32)cc1"
label = "F"

[[record]]
compound = "C#CCOc1ccc2ncnc(Nc3cccc(CNC(=O)C=C)c3)c2c1"
label = "F"

[[record]]
compound = "Brc1ccc(-c2csc(Nc3ccccn3)n2)cc1"
label = "F"

[[record]]
compound = "Cc1cc(C)nc(SC2=C(Nc3ccc(O)cc3)C(=O)N(Cc3ccccc3)C2=O)n1"
label = "F"

[[record]]
compound = "CC(C)(O)c1cn(CCCCN2C(=O)C(=O)c3ccccc32)nn1"
label = "F"

[[record]]
compound = "CN(C)S(=O)(=O)c1cccc(-c2nc3sc4c(c3c(=O)[nH]2)CCCC4)c1"
label = "F"

[[record]]
compound = "CCC([N+](=O)[O-])S(=O)(=O)c1ccc(C)cc1 (centres undefined)"
label = "F"

[[record]]
compound = "CC(C)c1c(C(=O)c2ccccc2)c(-c2ccccc2)c(-c2ccc(F)cc2)n1CC[C@@H](O)C[C@@H](O)CC(=O)O"
label = "F"

[[record]]
compound = "COc1ccc(-c2nc3cc(C(=O)Nc4cc(OC)c(OC)c(OC)c4)ccc3n2C2CCCCC2)cc1"
label = "F"

[[record]]
compound = "Oc1cccc(-c2nc(N3CCOCC3)c3c4c(sc3n2)CCCC4)c1"
label = "F"

[[record]]
compound = "CC[C@H]1OC(=O)[C@H](C)[C@@H](O[C@H]2C[C@@](C)(OC)[C@@H](O)[C@H](C)O2)[C@H](C)[C@@H](O[C@@H]2O[C@H](C)C[C@H](N(C)C)[C@H]2O)[C@](C)(O)C[C@H](C)CN(C)[C@H](C)[C@@H](O)[C@]1(C)O"
label = "F"

[[record]]
compound = "COc1ccc(C(=O)COc2cccc(/C=C3\\CSc4ccccc4C3=O)c2)cc1"
label = "T"


###

system: 786-0 renal; assay: NCI-60 one-dose screen, 48 h; details: 10 µM unless noted
The panel holds about 83,000 compounds, 20% with a hit somewhere; the sample as a whole holds those more often. Active and inactive are the calls of the source. The calls were made as follows: active = growth percent below 10; inactive = the rest.
Outcomes: TRUE for active, FALSE for inactive

[[record]]
molecule = "COc1cc(C=Nc2oc(-c3ccccc3)c(-c3ccccc3)c2C#N)cc(CN2CCCCC2)c1O"
target_or_test_system = "786-0 renal"
label = "FALSE"

[[record]]
molecule = "CC(C)(C)N1CCC1CN (stereo not given)"
target_or_test_system = "786-0 renal"
label = "FALSE"

[[record]]
molecule = "Cc1cc(Nc2ccc(C)c(Cl)c2)n2nc(C(F)(F)F)nc2n1"
target_or_test_system = "786-0 renal"
label = "TRUE"

[[record]]
molecule = "COc1ccc(-c2nc(SCC(=O)Nc3ccc(C(=O)/C=C/c4ccc(Cl)cc4)cc3)[nH]c(=O)c2C#N)cc1"
target_or_test_system = "786-0 renal"
label = "FALSE"

[[record]]
molecule = "O=c1ccccc(-c2ccc(-c3ccco3)cc2)c1O"
target_or_test_system = "786-0 renal"
label = "FALSE"


###

tested on: NCI-H226 lung; assay: NCI-60 one-dose screen, 48 h (100 = growth as untreated, 0 = no growth, -100 = all killed); settings: 10 µM unless noted
The panel holds about 83,000 compounds, 20% with a hit somewhere; the sample as a whole holds those more often.
Property name: growth (%)

[[record]]
molecule = "O=C1c2cccc3cccc(c23)C(=O)N1CCCCCN1CCN(CCCCCOc2ccc(-c3nc4ccc(N5CCOCC5)cc4[nH]3)cc2)CC1"
output_unit = "%"
quantitative_readout = 78.9

[[record]]
molecule = "CN(CCCCCl)P(=O)(OCc1ccc([N+](=O)[O-])o1)C(F)(F)c1ccc(CC(=O)NC[C@@H](O)/C=C\\[C@@H](O)[C@H](CO)Cc2ccccc2)cc1 (some centres undefined)"
output_unit = "%"
quantitative_readout = 95.6

[[record]]
molecule = "COC(=O)c1ccc(Cn2cnc3c(N)ncnc32)cc1"
output_unit = "%"
quantitative_readout = 106

[[record]]
molecule = "Nc1ccc(-c2cc3c(Nc4ccc(Oc5cccc(C(F)(F)F)c5)c(Cl)c4)ncnc3s2)cc1"
output_unit = "%"
quantitative_readout = 69


These data points were gathered from PubChem BioAssay (NCI).
